SYSTEM: Fuc(a1-2)Gal(b1-4)Glc6S
EXPERIMENTAL DETAILS: glycan array binding signal (z-score within array); higher = stronger binding
CONDITION NOTES: glycan notation: IUPAC condensed, linker removed
Shown is part of a subset that was picked to be rich in the strongest signals.
glycan array binding signal (z-score) listing for selected binders.
Please give the numeric answer without any surrounding text.

- BINDER: "Tamarinin (protein) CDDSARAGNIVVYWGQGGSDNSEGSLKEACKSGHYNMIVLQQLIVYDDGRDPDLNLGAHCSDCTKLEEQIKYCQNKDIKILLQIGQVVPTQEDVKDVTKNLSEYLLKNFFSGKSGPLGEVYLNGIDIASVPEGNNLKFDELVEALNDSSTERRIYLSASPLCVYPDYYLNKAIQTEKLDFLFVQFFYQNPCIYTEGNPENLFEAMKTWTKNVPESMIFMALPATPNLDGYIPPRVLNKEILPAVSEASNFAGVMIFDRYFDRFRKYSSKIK"
  RECORDED VALUE: -0.241
- BINDER: "SSL (Salmo salar) (protein) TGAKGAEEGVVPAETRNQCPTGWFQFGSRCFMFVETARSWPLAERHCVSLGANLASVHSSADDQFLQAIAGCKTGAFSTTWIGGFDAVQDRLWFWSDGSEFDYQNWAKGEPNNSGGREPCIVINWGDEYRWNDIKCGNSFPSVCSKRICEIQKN"
  RECORDED VALUE: -0.137

Prompt: Hello, please tell me recorded glycan array binding signal (z-score) for this one: Nictaba (Nicotiana tabacum), Q94EW1 (protein) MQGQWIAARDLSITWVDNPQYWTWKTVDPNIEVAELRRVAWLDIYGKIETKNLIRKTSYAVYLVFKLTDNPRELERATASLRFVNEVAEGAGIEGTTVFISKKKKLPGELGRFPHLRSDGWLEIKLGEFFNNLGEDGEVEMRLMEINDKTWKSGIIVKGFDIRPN
Response: -0.254
